System: LG0703-F948-PDC complex spheroid viability
ASSAY_COMMENT: Anticancer human tumor LG0703-F948-PDC patient-derived lung adenocarcinoma cell line growth inhibition [RAS]
CONDITION_CONTEXT: second compound 0.3 µM; first compound 10 µM; active compounds read low
# viability, T/C per entry
MEASURED_ATTRIBUTE: viability, T/C (%)

- NC1c2ccccc2OC12CCN(c1cnc3c(N4CCCc5ncccc54)n[nH]c3n1)CC2 (configuration not stated) + CCn1c(-c2cccnc2C(C)OC)c2c3cc(ccc31)N1CCOC(CC(NC(=O)C(C(C)C)N(C)C(=O)C3(F)CCN(C(=O)C#CC(C)(C)N(C)C)CC3)C(=O)N3CCCC(N3)C(=O)OCC(C)(C)C2)C1: 1.58
- CC(=O)OC12COC1CC(O)C1(C)C(=O)C(O)C3=C(C)C(OC(=O)C(O)C(NC(=O)OC(C)(C)C)c4ccccc4)CC(O)(C(OC(=O)c4ccccc4)C21)C3(C)C (configuration not stated) + CCn1c(-c2cc(N3CCN(C)CC3)cnc2C(C)OC)c2c3cc(ccc31)-c1csc(n1)CC(NC(=O)C1CC1C)C(=O)N1CCCC(N1)C(=O)OCC(C)(C)C2: 2.37

---

Tested on: LG0703-F948-PDC complex spheroid viability
ASSAY_COMMENT: Anticancer human tumor LG0703-F948-PDC cell line growth inhibition [RAS]; active = viability on the fitted dose curve at most 10% of control; inactive = the rest;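 further: spheroids exposed to agents for 7 days; 100% = DMSO vehicle wells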
CONDITION_CONTEXT: second compound 1 µM; first compound 3.16 µM
Outcome codes: active, inactive

* NC1c2ccccc2OC12CCN(c1cnc3c(N4CCCc5ncccc54)n[nH]c3n1)CC2 (stereo not given) + C=CC(=O)N1CCN(c2nc(OCC3CCCN3C)nc3c(F)c(-c4nc(N)cc(C)c4C(F)(F)F)c(Cl)cc23)C(C)C1 | active
* CC(Nc1ccc2c(c1)OCCn1cc(N3C(=O)OCC3C(F)F)nc1-2)C(N)=O (stereo not given) + C=CC(=O)N1CCN(c2nc(OCC3CCCN3C)nc3c(F)c(-c4nc(N)cc(C)c4C(F)(F)F)c(Cl)cc23)C(C)C1 | inactive
* CC(C)NCC(C(=O)N1CCN(c2ncnc3c2C(C)CC3O)CC1)c1ccc(Cl)cc1 (stereo not given) + C=CC(=O)N1CCN(c2nc(OCC3CCCN3C)nc3c(F)c(-c4nc(N)cc(C)c4C(F)(F)F)c(Cl)cc23)C(C)C1 | inactive
* Cc1nc(N2CCC3(CC2)COC(C)C3N)c(CO)nc1Sc1ccnc(N)c1Cl (stereo not given) + C#Cc1c(F)ccc2cc(O)cc(-c3ncc4c(N5CC6CCC(C5)N6)nc(OCC56CCCN5CC(F)C6)nc4c3F)c12 | inactive
* CC(C)NCC(C(=O)N1CCN(c2ncnc3c2C(C)CC3O)CC1)c1ccc(Cl)cc1 (stereo not given) + C#Cc1c(F)ccc2cc(O)cc(-c3ncc4c(N5CC6CCC(C5)N6)nc(OCC56CCCN5CC(F)C6)nc4c3F)c12 | inactive

---

# viability, T/C per entry
Test system: LG0703-F948-PDC complex spheroid viability
ASSAY_COMMENT: Anticancer human tumor LG0703-F948-PDC cell line growth inhibition [RAS];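 further: spheroids exposed to agents for 7 days; 100% = DMSO vehicle wells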
CONDITION_CONTEXT: second compound 0.000949 µM; first compound 0.1 µM; active compounds read low
MEASURED_ATTRIBUTE: viability, T/C (%)

- C=CC(=O)N1CCN(c2nc(OCC3CCCN3C)nc3c(F)c(-c4nc(N)cc(C)c4C(F)(F)F)c(Cl)cc23)C(C)C1 (centres undefined) + CCn1c(-c2cc(N3CCN(C)CC3)cnc2C(C)OC)c2c3cc(ccc31)-c1csc(n1)CC(NC(=O)C1CC1C)C(=O)N1CCCC(N1)C(=O)OCC(C)(C)C2: 66.5
- Cc1nc(N2CCC3(CC2)COC(C)C3N)c(CO)nc1Sc1ccnc(N)c1Cl (centres undefined) + CCn1c(-c2cc(N3CCN(C)CC3)cnc2C(C)OC)c2c3cc(ccc31)-c1csc(n1)CC(NC(=O)C1CC1C)C(=O)N1CCCC(N1)C(=O)OCC(C)(C)C2: 48
- CC1(O)CCCC1n1c(=O)c(C(F)F)cc2cnc(NC3CCN(S(C)(=O)=O)CC3)nc21 (centres undefined) + CCn1c(-c2cc(N3CCN(C)CC3)cnc2C(C)OC)c2c3cc(ccc31)-c1csc(n1)CC(NC(=O)C1CC1C)C(=O)N1CCCC(N1)C(=O)OCC(C)(C)C2: 89.8
- O=C(c1ccc(F)c(F)c1Nc1ccc(I)cc1F)N1CC(O)([C@@H]2CCCCN2)C1 + CCn1c(-c2cccnc2C(C)OC)c2c3cc(ccc31)N1CCOC(CC(NC(=O)C(C(C)C)N(C)C(=O)C3(F)CCN(C(=O)C#CC(C)(C)N(C)C)CC3)C(=O)N3CCCC(N3)C(=O)OCC(C)(C)C2)C1: 48.2
